biological target: T1, Eukaryotic initiation factor 4E (eIF4E), full-length human (human, UniProt P06730 1-217); assay: SPR; eIF4E amine coupled to a CM5 chip (about 1000 RU, m7GTP present at immobilisation), peptides injected; 10 mM Hepes pH 7.6, 0.15 M NaCl, 1 mM DTT, 0.1% Tween20, 3% DMSO; Biacore T100; Kd from the association and dissociation phases (Kkin), 1:1 model, three titrations; conditions: both partners purified
T1 construct: eIF4E, human, full length
T1 sequence (P06730 whole entry): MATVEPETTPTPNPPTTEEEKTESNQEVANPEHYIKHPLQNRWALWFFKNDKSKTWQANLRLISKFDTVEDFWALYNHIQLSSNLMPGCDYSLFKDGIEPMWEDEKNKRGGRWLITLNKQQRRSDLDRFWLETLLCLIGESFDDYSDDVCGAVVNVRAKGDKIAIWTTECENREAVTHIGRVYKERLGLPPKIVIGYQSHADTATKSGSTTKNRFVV
Lab note: anything with Kd below 400 nM is marked yes (1); values at 400 nM or higher are marked no (0).

Given the entry KKRYTREFLLGF (eIF4G1 peptide with D5T; source: synthetic peptide (Mimotopes), HPLC purified to >90%) [eIF4G1-D5T peptide] , would its reported Kd be below 400 nM?
yes (1)

What do we get for KKRYEREFLLGF (eIF4G1 peptide with D5E; also called eIF4G-D5E; source: synthetic peptide (Mimotopes), HPLC purified to >90%) [eIF4G1-D5E peptide] ?
no (0)

What do we get for KKRYGREFLLGF (eIF4G1 peptide with D5G; source: synthetic peptide (Mimotopes), HPLC purified to >90%) [eIF4G1-D5G peptide] ?
no (0)

What do we get for KKRYCREFLLGF (eIF4G1 peptide with D5C; source: synthetic peptide (Mimotopes), HPLC purified to >90%) [eIF4G1-D5C peptide] ?
no (0)

What do we get for KKRYPREFLLGF (eIF4G1 peptide with D5P; source: synthetic peptide (Mimotopes), HPLC purified to >90%) [eIF4G1-D5P peptide] ?
no (0)
